assay: PK after subcutaneous administration of solutions in dogs; assay type: in vivo, Beagle dog; details: male, beagle, dog, plasma, sc, 12 mg/kg, dog #3; 8.0 h; SC 12 mg/kg, 400 mg/mL in 15% water/85% PEG 300
Property Measured: concentration at 8 h (nM)

smiles_record=CC(C)(C#Cc1ccc(-c2ccc(Cl)c3c(NS(C)(=O)=O)nn(CC(F)(F)F)c23)c([C@H](Cc2cc(F)cc(F)c2)NC(=O)Cn2nc(C(F)(F)F)c3c2C(F)(F)[C@@H]2C[C@H]32)n1)S(C)(=O)=O endpoint_value=9.2

###

assay: PK after subcutaneous administration of solutions in dogs; type: in vivo, Beagle dog; details: male, beagle, dog, plasma, sc, 12 mg/kg, dog #1; 24.0 h; SC 12 mg/kg, 400 mg/mL in 15% water/85% PEG 300
Property Measured: concentration at 24 h (nM)

compound="CC(C)(C#Cc1ccc(-c2ccc(Cl)c3c(NS(C)(=O)=O)nn(CC(F)(F)F)c23)c([C@H](Cc2cc(F)cc(F)c2)NC(=O)Cn2nc(C(F)(F)F)c3c2C(F)(F)[C@@H]2C[C@H]32)n1)S(C)(=O)=O [Formula (Ia)]" endpoint_value=19.8
